The reported measurements were obtained from ChEMBL document CHEMBL4270515.

# System: Chromobacterium violaceum
# PROTOCOL_NOTES: Inhibition of N-acyl-homoserinlactone-related quorum sensing system in Chromobacterium violaceum ATCC 12472 assessed as diameter of violacein pigment inhibition after 48 hrs
ASSAY_ENDPOINT: inhibition zone (IZ)

Some molecules with recorded inhibition zone (IZ):
- Cc1n[nH]c2c1C(c1ccc(N(C)C)cc1)C=C(N)N2 (stereo not given): < 2 mm
- Cc1n[nH]c2c1C(c1ccc(N(C)C)cc1)C(C(=O)N/N=C/c1ccc(Cl)cc1)=C(N)N2 (stereo not given): < 2 mm
- Cc1n[nH]c2c1C(c1ccc(N(C)C)cc1)C(C(=O)NNC(N)=S)=C(N)N2 (stereo not given): < 2 mm
- Cc1n[nH]c2c1C(c1ccc(N(C)C)cc1)C(C(=O)N/N=C1/C(=O)Nc3ccccc31)=C(N)N2 (stereo not given): < 2 mm
- Cc1n[nH]c2c1C(c1ccc(N(C)C)cc1)C(C(N)=O)=C(N)N2 (stereo not given): < 2 mm
- Cc1n[nH]c2c1C(c1ccc(N(C)C)cc1)C(C(=O)NNc1cc([N+](=O)[O-])ccc1[N+](=O)[O-])=C(N)N2 (stereo not given): 2.5 mm
- Cc1n[nH]c2c1C(c1ccc(N(C)C)cc1)C(C(=O)n1ncc(C#N)c1N)=C(N)N2 (stereo not given): < 2 mm
- Oc1cc(O)c2c(c1)O[C@H](c1ccc(O)c(O)c1)[C@@H](O)C2: 2 mm

Give measured inhibition zone (IZ) for every item shown.
1. Cc1n[nH]c2c1C(c1ccc(N(C)C)cc1)C(C(=O)NN)=C(N)N2 (stereo not given)
2. Cc1n[nH]c2c1C(c1ccc(N(C)C)cc1)C(C(=O)O)=C(N)N2 (stereo not given)

[out]
5 mm
11 mm
